Target: Human TRPV3 expressing CHO cells (Homo sapiens)
Construct: expressed in transfected cells; host or cells: CHO cells, kept under G-418 selection
Sequence (Q8NET8 1-790): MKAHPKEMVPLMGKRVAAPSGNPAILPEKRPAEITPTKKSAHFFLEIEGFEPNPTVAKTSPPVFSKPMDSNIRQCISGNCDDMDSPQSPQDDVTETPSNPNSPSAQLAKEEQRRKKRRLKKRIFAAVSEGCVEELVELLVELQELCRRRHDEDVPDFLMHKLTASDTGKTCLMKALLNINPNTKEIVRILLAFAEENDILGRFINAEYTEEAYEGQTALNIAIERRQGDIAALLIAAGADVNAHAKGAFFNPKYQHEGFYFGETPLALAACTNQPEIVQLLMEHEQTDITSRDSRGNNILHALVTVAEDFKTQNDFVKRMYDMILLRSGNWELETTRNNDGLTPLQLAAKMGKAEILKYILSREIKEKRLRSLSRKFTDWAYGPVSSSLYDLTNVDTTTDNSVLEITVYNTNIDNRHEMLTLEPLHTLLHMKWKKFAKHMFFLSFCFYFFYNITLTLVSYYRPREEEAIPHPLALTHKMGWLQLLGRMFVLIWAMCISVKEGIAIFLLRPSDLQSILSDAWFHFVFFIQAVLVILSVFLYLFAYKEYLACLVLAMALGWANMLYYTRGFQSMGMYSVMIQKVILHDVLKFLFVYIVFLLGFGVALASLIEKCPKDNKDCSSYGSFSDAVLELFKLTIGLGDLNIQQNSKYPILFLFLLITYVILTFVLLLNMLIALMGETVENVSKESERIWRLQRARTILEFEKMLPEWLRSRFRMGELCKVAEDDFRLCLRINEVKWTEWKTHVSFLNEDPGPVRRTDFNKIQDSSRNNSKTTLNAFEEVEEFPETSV
Test: 45Calcium uptake assay: inhibition of 2-APB induced cellular uptake of radioactive calcium
Type: cell-based
Conditions: compound at 10.0 μM, 2-APB 500 μM, read-out: Percentage inhibition at 10.0 μM
Label scheme for inhibition at 10 µM: lower than 80% is 0 (no), 80% and above is 1 (yes).

• CC(C)(C)COc1c(/C=C/c2nc3sccn3c2C(=O)NCC(F)(F)F)cccc1OC(F)F = 1 (yes)
• COc1cccc(/C=C/c2nc3sccn3c2C(=O)N2CCN(c3ccc(C#N)cn3)CC2)c1OCC1CC1 = 0 (no)
• CC(C)CCOc1c(/C=C/c2nc3sccn3c2C(=O)Nc2nc(C(F)(F)F)cs2)cccc1OC(F)F = 1 (yes)
• COc1cccc(/C=C/c2nc3sccn3c2C(=O)Nc2nc(C(F)(F)F)cs2)c1OC1CCCC1 = 1 (yes)
• COc1cccc(/C=C/c2nc3sccn3c2C(=O)Nc2ccc(OC(F)(F)F)cc2)c1OCC1CC1 = 0 (no)

====

Molecular target: Human TRPV3 expressing CHO cells (Homo sapiens)
Construct: expressed in transfected cells; host or cells: CHO cells, kept under G-418 selection
Assay: 45Calcium uptake assay: inhibition of 2-APB induced cellular uptake of radioactive calcium
Type: cell-based
Conditions: compound at 10.0 μM, 2-APB 500 μM, read-out: Percentage inhibition at 10.0 μM
Label scheme for inhibition at 10 µM: lower than 80% is label 0, 80% and above is label 1.

- COc1cccc(/C=C/c2nc3ccccn3c2C(=O)Nc2nc(C(F)(F)F)cs2)c1OCC(C)(C)C: label 1
- CC(C)(C)COc1c(/C=C/c2nc3sccn3c2C(=O)Nc2cccc(C(F)(F)F)c2)cccc1OC(F)F: label 0
- CC(C)(C)COc1c(/C=C/c2nc3sccn3c2C(=O)NCCC#N)cccc1OC(F)F: label 1
- COc1cccc(/C=C/c2nc3sccn3c2C(=O)N2CCN(c3ccc(C(F)(F)F)cn3)CC2)c1OCC1CC1: label 1
- CC(C)(C)COc1c(/C=C/c2nc3sccn3c2C(=O)Nc2nc(C(F)(F)F)cs2)cccc1OC(F)F: label 1
- CC(C)(C)COc1c(/C=C/c2nc3sccn3c2C(=O)Nc2ccc(C#N)cn2)cccc1OC(F)F: label 0
- CC(C)(C)COc1c(/C=C/c2nc3sccn3c2C(=O)Nc2ncc(C(F)(F)F)cc2Cl)cccc1OC(F)F: label 0
